Test system: GAK
study_conditions: concentration: 1 μM,replicates: in singlicate; n = 1;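 further: KINOMEscan kinase panel screen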
property_measured: %Inh (%)
Please give a number only; it is taken to be in %.

CCN1CCN(CCCC(=O)Nc2n[nH]c3nc(-c4ccc(O)cc4)c(Br)cc23)CC1 [SB-731579]    0
Cc1ccc(C(=O)Nc2ccc(Oc3ccc4nc(NC(=O)C5CC5)cn4c3)c(F)c2)c(=O)n1-c1ccccc1    0
Nc1nccc(-c2ccc3c(N)n[nH]c3c2)n1 [GSK1034945]    15
Cc1cccc(-c2nc(Nc3ccncc3)c3sccc3n2)n1 [GW869641]    13
Cn1cc(-c2cccc3c(N)c(C(N)=O)nnc23)cn1    36

# input for lookup
Hello, I am looking for reported %Inh with GAK for COc1cccc(OC)c1C(=O)Nc1cccc(-c2nn3ccccc3c2-c2ccnc(Nc3cccc(F)c3)n2)c1 [GSK361065] . Could you help?
6

====

The molecules listed here are annotated with their %Inh.
Test system: AXL
study_conditions: concentration: 1 μM,replicates: in singlicate; n = 1
Please give a number only; it is taken to be in %.

CC(=O)c1c(-c2ccncc2)[nH]c(-c2ccncc2)c1C [GW493036]    17
Cl.Cl.NC[C@H](CC1CCCCC1)NC(=O)c1ccc(-c2ccnc3[nH]ccc23)s1 [GSK1581428]    96.3
O=C1NCCc2[nH]c(-c3ccncc3)cc21    8
CN(c1ccc2c(c1)nc(NCc1ccc(F)cc1)n2C)c1ccnc(Nc2ccc(CS(C)(=O)=O)cc2)n1.Cl [GW813244]    68
Cn1ccc2ncnc(Oc3ccc(NC(=O)Nc4cncc(C(F)(F)F)c4)c(Cl)c3)c21    59

# input for lookup
I'd like to know its %Inh. The molecule in question is CCOC(=O)N1CCC(n2cnc(-c3ccc(F)cc3)c2-c2ccnc(N)n2)CC1 [SB-219952]
19

====

Tested on: SIK
study_conditions: concentration: 1 μM,replicates: in singlicate; n = 1
%Inh below 2% gives no (0); %Inh at or above it gives yes (1).

Consider the worked cases shown below.
CC(=O)Nc1nc2cnc(Nc3cc(NC(=O)c4cccc(CC(C)(C)C#N)c4)ccc3C)nc2s1    yes (1)
CC(C(=O)NC1CCN(c2ccnc(Nc3ccc(F)cc3)n2)C1)c1ccc(Cl)cc1 (centres unmarked) [GSK1379713]    no (0)
CCN1CCN(CCCC(=O)Nc2n[nH]c3nc(-c4ccc(O)cc4)c(Br)cc23)CC1 [SB-731579]    no (0)

Pending compound:
Tell me whether %Inh is at least 2% here: OCCn1cc(-c2cnc3nnn(Cc4ccc5ncccc5c4)c3n2)cn1
no (0)

====

Tested on: MEK5
Construct: gene MAP2K5
study_conditions: concentration: 1 μM,replicates: in singlicate; n = 1
property_measured: %Inh (%)
Please give a number only; it is taken to be in %.

Below: 3 compounds and their reported %Inh.
NC(=O)c1ccc(-c2cc3ncnc(SCC(=O)O)c3s2)cc1    38
N#Cc1cccc(C(=O)NC2CCN(c3ccnc(Nc4ccc(F)cc4)n3)C2)c1 (centres unmarked)    12
CC(=O)c1c(-c2ccncc2)[nH]c(-c2ccncc2)c1C    2

# input for lookup
I'd like to know its %Inh. The compound in question is Cn1ccc2ncnc(Oc3ccc(NC(=O)Nc4ccnc(C(F)(F)F)c4)c(Cl)c3)c21
9
